- experimentalDetails: physchem
- conditionSet: n-octanol/PBS, pH 7.4, Log D (single measurements 1-5), n-octanol/PBS pH 7.4, individual replicates
measuredAttribute: logD

compound	numericValue
CCCN(CCC)C(=O)Cc1c(-c2ccc([18F])cc2)nc2c(Cl)cc(Cl)cn12 [[^18F]BS224]	2.78

====

- experimentalDetails: in vitro
- conditionSet: human, human plasma

compound	fraction unbound at 10 min, 1.19 MBq/mL
CCCN(CCC)C(=O)Cc1c(-c2ccc([18F])cc2)nc2c(Cl)cc(Cl)cn12 [[^18F]BS224]	0.049

====

- subjectOfTest: TSPO-WT (HAB) (Homo sapiens, UniProt P30536, T147A)
- Sequence (P30536 whole entry T147A): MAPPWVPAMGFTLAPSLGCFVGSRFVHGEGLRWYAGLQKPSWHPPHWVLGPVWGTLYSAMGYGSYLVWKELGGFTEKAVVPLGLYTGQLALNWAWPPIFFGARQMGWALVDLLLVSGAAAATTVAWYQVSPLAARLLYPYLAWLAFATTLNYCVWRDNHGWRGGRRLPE
- experimentalDetails: biochemical

smilesRepr	subjectOfTest	IC50 (nM)
CCCN(CCC)C(=O)Cc1c(-c2ccc(F)cc2)nc2c(Cl)cc(Cl)cn12	TSPO-WT (HAB) (Homo sapiens, UniProt P30536, T147A)	590

====

- experimentalDetails: physchem
- conditionSet: n-octanol/PBS, pH 7.4, Log D, n-octanol/PBS pH 7.4, 25 °C, average n = 5

compound	logD
CCCN(CCC)C(=O)Cc1c(-c2ccc([18F])cc2)nc2c(Cl)cc(Cl)cn12 [[^18F]BS224]	2.78
